Target under test: Human Testicular 17α-Hydroxylase (Homo sapiens, UniProt P05093)
Construct: incubating human testicular microsomes; from tissue; host or cells: human testis, microsomes
Sequence (P05093 1-508): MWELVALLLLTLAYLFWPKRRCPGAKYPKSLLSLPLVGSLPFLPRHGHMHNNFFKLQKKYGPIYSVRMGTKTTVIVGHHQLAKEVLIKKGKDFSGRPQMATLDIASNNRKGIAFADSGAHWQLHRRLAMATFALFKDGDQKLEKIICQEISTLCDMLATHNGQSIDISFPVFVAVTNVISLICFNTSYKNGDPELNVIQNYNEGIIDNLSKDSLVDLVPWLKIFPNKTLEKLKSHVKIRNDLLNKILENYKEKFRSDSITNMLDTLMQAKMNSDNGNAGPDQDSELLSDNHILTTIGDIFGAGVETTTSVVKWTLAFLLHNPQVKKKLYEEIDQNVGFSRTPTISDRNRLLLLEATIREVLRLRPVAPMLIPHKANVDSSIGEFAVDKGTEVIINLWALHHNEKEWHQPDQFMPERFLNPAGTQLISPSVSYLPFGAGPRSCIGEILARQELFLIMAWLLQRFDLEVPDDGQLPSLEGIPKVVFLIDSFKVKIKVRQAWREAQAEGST
Protocol summary: Inhibition of human testicular 17α-hydroxylase (pregnenolone substrate, testicular microsomes)
Assay type: biochemical
Cond: 100 nM; first figure of pair; read-out: % Inhibition 17α-hydroxylase, [I] = 100 nM
Values of inhibition at 0.1 µM greater than or equal to 20% map to condition met; values below map to condition not met.

## Task Answer whether inhibition at 0.1 µM of Cc1nc([C@H]2CC[C@H]3[C@@H]4CC=C5C[C@@H](O)CC[C@]5(C)[C@H]4CC[C@]23C)co1 [Compound L-5] is greater than or equal to 20%.
## Result condition met

## Task Another molecule: C[C@]12CC[C@H]3[C@@H](CC[C@]45CC(=O)C=C[C@]34C5)[C@@H]1CCC2=O [Compound L-15, 5,19β-cycloandrost-1-ene-3,17-dione]
## Result condition not met

## Task // query: C[C@]12CC[C@H]3[C@@H](CC=C4C[C@@H](O)CC[C@@]43C)[C@@H]1CC[C@@H]2c1c[nH]c(-c2ccccc2)n1 [Compound L-7]
## Result condition not met

## Task One more molecule: C[C@]12CC[C@H]3[C@@H](CC=C4C[C@@H](O)CC[C@@]43C)[C@@H]1CC[C@@H]2c1ncc[nH]1 [Compound L-1]
## Result condition met

## Task Here is the next molecule: CC(=O)O[C@H]1CC[C@@]2(C)C(=CC[C@@H]3[C@@H]2CC[C@]2(C)C(c4c[nH]cn4)=CC[C@@H]32)C1 [Compound L-12]
## Result condition met

----------
Target under test: human 17α-hydroxylase/C17,20-lyase (Homo sapiens, UniProt P05093)
Construct: incubating human testicular microsomes; from tissue; host or cells: human testis, microsomes
Protocol summary: Inhibition of human testicular 17α-hydroxylase/C17,20-lyase (enzyme complex as a whole)
Assay type: biochemical
Cond: NI = no inhibition
Measured parameter: inhibition of 17α-hydroxylase/C17,20-lyase (in words)

# Compound, Result
measured = [
    ("C[C@@H](O)[C@H]1CC[C@H]2[C@@H]3CCC4=CC(=O)CC[C@]4(C)[C@H]3CC[C@]12C", "potent inhibition"),
    ("CC(=NO)C1=CC[C@H]2[C@@H]3CC=C4C[C@@H](O)CC[C@]4(C)[C@H]3CC[C@]12C [Compound I-5, 16-dehydropregnenolone-20-oxime]", "potent inhibition"),
]

----------
Target under test: Human Prostatic 5α-Reductase (Homo sapiens)
Sequence (P31213 whole entry): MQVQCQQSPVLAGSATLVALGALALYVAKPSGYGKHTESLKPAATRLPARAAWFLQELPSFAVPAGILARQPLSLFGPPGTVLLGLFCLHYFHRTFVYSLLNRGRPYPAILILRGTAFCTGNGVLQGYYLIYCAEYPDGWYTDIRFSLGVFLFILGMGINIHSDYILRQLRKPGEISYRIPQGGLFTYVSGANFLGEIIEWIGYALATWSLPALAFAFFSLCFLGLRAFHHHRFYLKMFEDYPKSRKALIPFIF
Protocol summary: Inhibition of human prostatic 5α-reductase (prostatic microsomes, [3H]testosterone)
Cond: NI = no inhibition

# Molecule, inhibition of 5α-reductase (in words)
measured = [
    ("CC(=NO)[C@H]1CC[C@H]2[C@@H]3CCC4=CC(=NO)CC[C@]4(C)[C@H]3CC[C@]12C [Compound I-43]", "decreased activity"),
    ("CC(=NO)[C@H]1CC[C@H]2[C@@H]3CCC4=CC(=NO)CC[C@]4(C)[C@H]3CC[C@]12C [Compound I-42]", "decreased activity"),
]

----------
Please provide measured inhibition at 0.4 µM for the entries that follow.
Target under test: Human Testicular C17,20-lyase (Homo sapiens, UniProt P05093)
Construct: incubating human testicular microsomes; from tissue; host or cells: human testis, microsomes
Protocol summary: Inhibition of human testicular C17,20-lyase (pregnenolone substrate, testicular microsomes)
Format: biochemical
Cond: read-out: % Inhibition C17,20-lyase, [I] = 400 nM
Answers are plain numbers, in %.

# Compound, Target under test, Measurement unit, inhibition at 0.4 µM
data = [
    ("CC1N[C@@]12CC[C@H]1[C@@H]3CC=C4C[C@@H](O)CC[C@]4(C)[C@H]3CC[C@@]12C (some centres unmarked)", "Human Testicular C17,20-lyase (Homo sapiens, UniProt P05093)", "%", 52),
]

Lab note: each compound below needs its inhibition at 0.4 µM filled in.
1. C[C@@H](O)C1=CC[C@H]2[C@@H]3CCC4=CC(=O)CC[C@]4(C)[C@H]3CC[C@]12C [Compound L-10, 20β-hydroxy-pregna-4,16-dien-3-one]
2. C[C@@H](O)C1=CC[C@H]2[C@@H]3CC=C4C[C@@H](O)CC[C@]4(C)[C@H]3CC[C@]12C
3. CC1N[C@]12CC[C@H]1[C@@H]3CC=C4C[C@@H](O)CC[C@]4(C)[C@H]3CC[C@@]12C (some centres unmarked)
4. Cc1nc([C@H]2CC[C@H]3[C@@H]4CC=C5C[C@@H](O)CC[C@]5(C)[C@H]4CC[C@]23C)c[nH]1

## Result
8.48
83.3
9.99
100

----------
Target under test: Human Testicular C17,20-lyase (Homo sapiens)
Construct: incubating human testicular microsomes; from tissue; host or cells: human testis, microsomes
Protocol summary: Inhibition of human testicular C17,20-lyase (pregnenolone substrate, testicular microsomes)
Assay type: biochemical
Cond: IC50 C17,20-lyase
Measured parameter: IC50 (nM)
Give bare numbers, in nM.

## Task Quick one: IC50 for CC(=O)C1=CC[C@H]2[C@@H]3CCC4=CC(=O)CC[C@]4(C)[C@H]3CC[C@]12C [Compound L-13, 16-dehydroprogesterone] ?
## Result 24

----------
Target under test: Human Testicular C17,20-lyase (Homo sapiens)
Construct: incubating human testicular microsomes; from tissue; host or cells: human testis, microsomes
Protocol summary: Inhibition of human testicular C17,20-lyase (pregnenolone substrate, testicular microsomes)
Assay type: biochemical
Cond: second figure of pair; read-out: IC50 C17,20-lyase
Friendly reminder: IC50 below 5 nM is MET, at or above is NOT MET.

# Smiles notation, Assigned category
records = [
    ("C[C@]12CC[C@H]3[C@@H](CC=C4C[C@@H](O)CC[C@@]43C)[C@@H]1CC[C@@H]2c1c[nH]cn1", "NOT MET"),
    ("C[C@]12CCC(=O)C=C1CC[C@@H]1[C@@H]2CC[C@]2(C)C(c3c[nH]cn3)=CC[C@@H]12", "MET"),
    ("C[C@]12CC[C@H](O)CC1=CC[C@@H]1[C@@H]2CC[C@]2(C)C(c3c[nH]cn3)=CC[C@@H]12", "MET"),
    ("CC(=O)O[C@H]1CC[C@@]2(C)C(=CC[C@@H]3[C@@H]2CC[C@]2(C)C(c4c[nH]cn4)=CC[C@@H]32)C1", "NOT MET"),
]

## Task Decide: IC50 of `C[C@]12CCC(=O)C=C1CC[C@@H]1[C@@H]2CC[C@@]2(C)[C@H]1CC[C@]2(O)c1c[nH]cn1` strictly below 5 nM?
## Result NOT MET

## Task Also `C[C@]12CC[C@H](O)CC1=CC[C@@H]1[C@@H]2CC[C@@]2(C)[C@H]1C[C@H]1O[C@]12c1c[nH]cn1` , if possible.
## Result NOT MET

----------
Target under test: Human Testicular 17α-Hydroxylase (Homo sapiens, UniProt P05093)
Construct: incubating human testicular microsomes; from tissue; host or cells: human testis, microsomes
Sequence (P05093 1-508): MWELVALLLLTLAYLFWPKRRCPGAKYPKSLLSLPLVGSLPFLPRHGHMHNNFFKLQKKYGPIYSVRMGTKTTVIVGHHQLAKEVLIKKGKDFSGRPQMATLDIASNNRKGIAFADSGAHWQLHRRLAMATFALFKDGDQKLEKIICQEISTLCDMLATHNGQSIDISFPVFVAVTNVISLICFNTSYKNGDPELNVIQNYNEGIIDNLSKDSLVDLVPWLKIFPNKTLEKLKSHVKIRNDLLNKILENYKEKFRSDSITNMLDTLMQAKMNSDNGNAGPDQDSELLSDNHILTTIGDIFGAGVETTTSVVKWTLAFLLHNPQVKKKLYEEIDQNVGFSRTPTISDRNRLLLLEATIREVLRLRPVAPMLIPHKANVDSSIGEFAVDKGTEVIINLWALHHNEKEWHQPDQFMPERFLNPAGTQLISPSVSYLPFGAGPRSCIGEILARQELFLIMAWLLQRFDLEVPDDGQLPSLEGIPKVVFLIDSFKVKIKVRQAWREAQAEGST
Protocol summary: Inhibition of human testicular 17α-hydroxylase (pregnenolone substrate, testicular microsomes)
Type: biochemical
Cond: Table 1; NI = no inhibition; read-out: IC50 17α-OHase
Field: IC50. Provide a value for each of the compounds that follow.
Numbers only, in µM.

Previously resolved entries follow.
# Compound, Target under test, IC50 [µM]
measured = [
    ("CC(=O)[C@@]12O[C@@H]1C[C@H]1[C@@H]3CCC4=CC(=O)CC[C@]4(C)[C@H]3CC[C@@]12C", "Human Testicular 17α-Hydroxylase (Homo sapiens, UniProt P05093)", 0.48),
    ("CC(=NO)[C@H]1CC[C@H]2[C@@H]3CCC4=CC(=NO)CC[C@]4(C)[C@H]3CC[C@]12C [Compound I-43]", "Human Testicular 17α-Hydroxylase (Homo sapiens, UniProt P05093)", 0.09),
    ("C[C@@H](N)[C@H]1CC[C@H]2[C@@H]3CC=C4C[C@@H](O)CC[C@]4(C)[C@H]3CC[C@]12C", "Human Testicular 17α-Hydroxylase (Homo sapiens, UniProt P05093)", 89.8),
    ("C[C@]12CCC(=O)C=C1CC[C@@H]1[C@@H]2CC[C@@]2(C)[C@H]1CC[C@]2(O)c1c[nH]cn1", "Human Testicular 17α-Hydroxylase (Homo sapiens, UniProt P05093)", 1.2),
]

Could you now look at the following compound, please?
## Task Which value of IC50 has been reported for `CN(C=O)[C@H]1CC[C@H]2[C@@H]3CCC4=CC(=O)CC[C@]4(C)[C@H]3CC[C@]12C` in the records?
## Result 0.76
